- Procedure details: NCI Yeast Anticancer Drug Screen. Data for the bub3 strain (AID 167)
- Experimental context: S. cerevisiae bub3 mutant strain, at 50.0 µM, active compounds read high
About 79,000 compounds went through this panel and 15% of them were active in at least one assay; those are over-represented in the sample as a whole.
Parameter measured: growth inhibition (%)
Give bare numbers, in %.

These solved cases illustrate the format of a correct answer.
O=C(O)Cc1cccc(C(=O)O)c1	-0.45
CCOC(=O)C(=O)N1Cc2cc3c(cc2C2CC(O)C(O)CC21)OCO3 (stereo not drawn)	2.85
Cc1cc(C#N)c[n+](C)c1	5.25
CC(C)(C)OC(=O)NCCCCC(NC(=O)OC(C)(C)C)C(=O)O (stereo not drawn)	5.95
CCOC(=O)CCCCCCCCCCCCCCCCC(=O)OCC	7.75

Parameters: items (list). Returns: growth inhibition for each item.
1. CC(C(O)c1ccccn1)[N+](=O)[O-] (stereo not drawn)
2. COc1ccc2c(c1)CCCN2C(N)=Nc1ccc([N+](=O)[O-])cc1
3. CC1=CC(C)(C)Nc2ccccc2N1

Resp:
-10.7
-1.95
-3

Would you mind listing growth inhibition for each of the following compounds?
1. Cc1ccc(F)c2[nH]c(-c3ccccc3)cc(=O)c12
2. c1ccc(CNn2nnc3ccccc32)cc1
3. NC(=O)C(=CNC(=S)Nc1ccc(Cl)c(Cl)c1)C(N)=O

Resp:
1: 8; 2: -2.95; 3: 2.05

Please give growth inhibition for each item listed below.
1. Cc1c([N+](=O)[O-])cc(C(=O)O)cc1[N+](=O)[O-]
2. CSc1cccc(N)c1

Resp:
1. 2.55
2. -6.8

====

- Procedure details: NCI Yeast Anticancer Drug Screen. Data for the rad50 strain (AID 155);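 note: 0% = growth of vehicle-only cultures of the same strain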
- Experimental context: S. cerevisiae rad50 strain growth inhibition; at 50.0 µM
This is part of a sample that, as a whole, favours compounds with a hit. Of some 79,000 tested, about 15% had one in any assay. Activity calls are given as the source filed them. No stated cut-off is given here; in the data, active means growth inhibition above about 70%; inactive means the rest.
Please reply with one of these outcomes: 1 = active, 0 = inactive

CCCCCC(C(O)C#N)C(O)(C(F)(F)F)C(F)(F)F (stereo not drawn)	1

Req: Which result was noted for this molecule in the test: CCC(C)NC(=O)c1ccc(Cl)cc1Cl (stereo not drawn)
Resp: 0

Req: Please let me know the test result on file for `COc1ccc(Cc2ccc3[nH]c(=O)cc(C)c3c2)cc1S(=O)(=O)O` .
Resp: 0

====

- Procedure details: NCI Yeast Anticancer Drug Screen. Data for the bub3 strain (AID 167)
- Experimental context: S. cerevisiae bub3 mutant strain, at 50.0 µM, active compounds read high
This is part of a sample that, as a whole, favours compounds with a hit. Of some 79,000 tested, about 15% had one in any assay.
Parameter measured: growth inhibition (%)
One number for each entry, in %.

Sample answers from the record:
CC(C)(O)C(F)(F)F	-3.4
CN1CCC(O)(c2ncc(Br)c3ccccc23)CC1	11.2

Lab note: next compound to report on.
Req: Can you share its growth inhibition? I mean this compound: C1CC2CC1C13OC1C1(CC1)C1OC213 (stereo not drawn)
Resp: -20.2

====

- Procedure details: NCI Yeast Anticancer Drug Screen. Data for the cln2 rad14 strain (AID 165);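 note: 0% = growth equal to vehicle treated cultures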
- Experimental context: S. cerevisiae cln2 rad14 strain, at 50.0 µM, active compounds read high
This is part of a sample that, as a whole, favours compounds with a hit. Of some 79,000 tested, about 15% had one in any assay. Calls of active or inactive are those of the source. No stated cut-off is given here; in the data, active means growth inhibition above about 70%; inactive means the rest.
Please respond with reported growth inhibition for every item in the list.

Use the examples below as a reference point.
O=C(O)c1ccccc1C(=O)Nc1ccc2ccccc2c1	2.6% (inactive)
CCOC(=O)C(C(=O)/C=C\c1ccccc1)(C(c1ccccc1)c1ccccc1)C(c1ccccc1)c1ccccc1	-38.5% (inactive)
O=C(O)CC(c1ccccc1)C(CC(=O)O)c1ccccc1.[NH-]C1CCCCC1[NH-].[Pt+2] (stereo unspecified)	-5.55% (inactive)
CC1CCC(Oc2nc3c(c(=O)n(C)c(=O)n3C)n2C)CC1 (stereo unspecified)	2% (inactive)
CCOC(=O)c1ccc(NC(=O)c2cnccn2)cc1	-15.4% (inactive)

Please look at the items below and tell me growth inhibition for each one, in order.
1. FC(F)(c1nnnn1Cc1ccccc1)C(F)(F)C(F)(F)C(F)(F)C(F)(F)C(F)(F)C(F)(F)C(F)(F)c1nnnn1Cc1ccccc1
2. Clc1ccc2c(c1)C1Oc3ccc(Cl)cc3C(O2)O1
3. CC(CN1CCCC1)OC(=O)C(c1ccccc1)C1CCCC1 (stereo unspecified)
4. C1=Nc2ccccc2Cn2nncc21

Resp:
["-2.65% (inactive)", "-14.3% (inactive)", "-50.2% (inactive)", "18.4% (inactive)"]

Give one value of growth inhibition per listed compound.
1. ON=C1CCN(c2ccccc2)CC1
2. N#CCc1ccccc1S(=O)(=O)O
3. O=C1NOCC1NCc1c(O)ccc2ccccc12 (stereo unspecified)
4. C=C1C(=O)OC2C1C(OC(=O)/C(C)=C/C)CC(O)(CCl)C1C(O)C=C(C)C21O (stereo unspecified)
5. O=C(OCC1OC(c2ccccc2)OC2C(COC(=O)c3ccccc3)OC(c3ccccc3)OC12)c1ccccc1 (stereo unspecified)
6. c1ccc(COC2NCCN2Cc2ccccc2)cc1 (stereo unspecified)
7. CCCS(=O)(=O)N1CCC(C)CC1

Resp:
["-44.1% (inactive)", "-9.75% (inactive)", "26.6% (inactive)", "20.8% (inactive)", "6.7% (inactive)", "6.8% (inactive)", "-8.65% (inactive)"]

# batch: return growth inhibition for each of the 7 compounds below
1. O=C(Nc1ccc(Cl)c(Cl)c1)OC1C=CS(=O)(=O)C1 (stereo unspecified)
2. O=CNn1cn[nH]c1=S
3. Cc1ccc(F)c2[nH]c(-c3ccccc3)cc(=O)c12
4. CC1SC2=NC3=C(c4ccccc4C3=O)C(c3ccc(F)cc3)N2C1=O (stereo unspecified)
5. O=C(NC(=O)c1ccccc1[N+](=O)[O-])Nc1ccc(Oc2ncc(Br)cn2)c(Cl)c1
6. O=C(O)C1=C(O)CCN=C1
7. CCC1SC(N)=NC1c1ccccc1 (stereo unspecified)

Resp:
["7.7% (inactive)", "4.25% (inactive)", "-5.95% (inactive)", "32% (inactive)", "0.6% (inactive)", "-10.8% (inactive)", "9.95% (inactive)"]

====

What growth inhibition was measured for each of the following?
- Procedure details: NCI Yeast Anticancer Drug Screen. Data for the bub3 strain (AID 167)
- Experimental context: S. cerevisiae bub3 mutant strain, at 50.0 µM, active compounds read high
This is part of a sample that, as a whole, favours compounds with a hit. Of some 79,000 tested, about 15% had one in any assay.
Answers are plain numbers, in %.

Cc1cccc(N=Nc2c(-c3ccccc3)nn(C(N)=S)c2C)c1C	-9.95

Quick batch: growth inhibition for everything below.
1. CC(=O)N(C1CCCCC1)C1CCCCC1
2. CC(C)(C)CC(C(=O)O)[Si](C)(C)C (stereo not drawn)

Resp:
[-2.2, 2.9]

====

- Procedure details: NCI Yeast Anticancer Drug Screen. Data for the cln2 rad14 strain (AID 165);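 note: 0% = growth equal to vehicle treated cultures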
- Experimental context: S. cerevisiae cln2 rad14 strain, at 50.0 µM, active compounds read high
This is part of a sample that, as a whole, favours compounds with a hit. Of some 79,000 tested, about 15% had one in any assay.
Kindly state growth inhibition for each of the entries shown.
Answers are plain numbers, in %.

Nc1ccc(/C=C/C(=O)O)cc1	10.8

Below are 3 compounds. Give each one its growth inhibition.
1. Cc1ccc(Cl)cc1NC(=O)C(Br)C(Br)C(=O)O (centres undefined)
2. CCOC(CN(C(C)C)C(C)C)OCC
3. CS(C)=O.CS(C)=O.[Cl][Ru+2][Cl].[NH-]c1ccccc1[NH-]

Resp:
1: 90.2; 2: 13.8; 3: 23.8

====

- Procedure details: NCI Yeast Anticancer Drug Screen. Data for the rad50 strain (AID 155);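 note: 0% = growth of vehicle-only cultures of the same strain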
- Experimental context: S. cerevisiae rad50 strain growth inhibition; at 50.0 µM; active compounds read high
- Experimental: Growth inhibition of yeast strains with defined genetic alterations is measured as a screen for potential anti-cancer activity. Selected strains with alterations in DNA damage repair or cell cycle control were exposed to compounds and growth inhibition was measured relative to vehicle treated controls. The strain used in this assay is rad50
About 79,000 compounds went through this panel and 15% of them were active in at least one assay; those are over-represented in the sample as a whole.
Parameter measured: growth inhibition (%)
One number for each entry, in %.

Answered cases to consult:
O=C1NC(=O)C(=NC2C(=O)NC(=O)NC2=O)C(=O)N1	6.65
CN(CC(=O)c1ccc(Cl)cc1)Cc1ccccc1	-1.45
O=C(NCc1ccco1)Nc1ccccc1Cl	-24.9
O=[N+]([O-])C(/C=C(\Cl)[N+](=O)[O-])=C(N1CCCCC1)N1CCCCC1	10.8
CCSC(SCC)[C@H](NC(C)=O)[C@@H](O)[C@H](O)[C@H](O)CO	-6.8

The following compounds each have a reported value; give each one's growth inhibition.
1. CC1=C(/C=C/C(O)CC(O)(C(F)(F)F)C(F)(F)F)C(C)(C)CCC1 (configuration not stated)
2. CC12CC(O)C(C=C1c1ccccc1)C2(C)C (configuration not stated)
3. O=C(OCC(OC(=O)c1ccccc1)C(OC(=O)c1ccccc1)C(OC(=O)c1ccccc1)C(COC(=O)c1ccccc1)OC(=O)c1ccccc1)c1ccccc1 (configuration not stated)
4. O=C1OC2CCCC[C@@H]2C2C[C@]34CCCCC3[C@@H](C(=O)O4)C12 (some centres not stated)
5. Cc1cc(OC(C)C)cc(C)c1C(=O)OCC(C)CN1CCCC1 (configuration not stated)
6. S=C(SCc1c(Cl)cccc1Cl)N1CCSCC1
7. CN(C)C(=S)c1cccc2ccccc12

Resp:
1: 38; 2: -7.55; 3: 22.1; 4: 23.1; 5: 1.9; 6: -13.9; 7: 5.1
